test system: ATP; assay: switch fluorescence ratio, 500 uM ATP over buffer (Cy3 cluster intensity, sum of 5 cycles each) (fold (ratio)); higher = stronger signal-on switching upon ATP binding; sequences stand for … in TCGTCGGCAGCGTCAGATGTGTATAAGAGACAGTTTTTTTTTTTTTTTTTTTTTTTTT…TC; conditions: aptamer strand: ATP DNA aptamer (quencher-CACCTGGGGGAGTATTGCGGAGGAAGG + anchor), 100 nM annealed; ATP concentration: 500 uM;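 also: ATP exposure 15 min at 22 °C before imaging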
measuredQuantity: switch fluorescence ratio
Write the number on its own, no unit after it.

Answered cases to consult:
GTTTCGGTTT ... 1.1
TTATCGCTGC ... 1.06
AAGTTGTGAC ... 0.997
TACGTGTAGA ... 1.02
AGGGGGACCC ... 1

[ask] I am curious: what switch fluorescence ratio value has been reported for AGTTGAGCAG ?
[reply] 1.02

[ask] Subsequent entry: AATGGCGGGA
[reply] 1.02

[ask] Similarly, CACGGGTATT ?
[reply] 1.01

[ask] Would you mind doing TGCGGTGACC as well?
[reply] 1

[ask] And the next one, TTGGACAGTT ?
[reply] 0.99

[ask] Try this sequence too: TAATGAATTC
[reply] 1

[ask] Next record, please: AGGAGGGCTG
[reply] 0.984

[ask] Item: TTTGGGCCTG
[reply] 1

[ask] Follow-up entry: CGTTTTTACT
[reply] 0.99

----------
system: ATP; experiment: switch fluorescence ratio, 500 uM ATP over buffer (Cy3 cluster intensity, sum of 5 cycles each) (fold (ratio)); higher = stronger signal-on switching upon ATP binding; sequences stand for … in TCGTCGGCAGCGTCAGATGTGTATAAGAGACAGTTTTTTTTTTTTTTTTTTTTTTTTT…TC; settings: aptamer strand: ATP DNA aptamer (quencher-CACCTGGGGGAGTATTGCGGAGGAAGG + anchor), 100 nM annealed; ATP concentration: 500 uM;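 also: ATP exposure 15 min at 22 °C before imaging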
Quick reference: switch fluorescence ratio of the listed items.

TTAAGGAAAA ... 1.04
GGGAGTGGCA ... 1.08
AATTTGTAGG ... 1
AAAAAATTAA ... 1.04
TCTTATAATA ... 0.988
CGCTGGGTTT ... 0.976

[ask] switch fluorescence ratio lookup needed for CTATGTAGTC , thanks.
[reply] 1.01

[ask] Then what about the sequence TTTGACCGTT ?
[reply] 0.988

[ask] Now try GACGCAGGGT .
[reply] 1.34

----------
tested on: ATP; experiment: switch fluorescence ratio, 500 uM ATP over buffer (Cy3 cluster intensity, sum of 5 cycles each) (fold (ratio)); higher = stronger signal-on switching upon ATP binding; sequences stand for … in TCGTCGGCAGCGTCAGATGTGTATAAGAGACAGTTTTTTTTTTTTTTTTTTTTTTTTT…TC; details: aptamer strand: ATP DNA aptamer (quencher-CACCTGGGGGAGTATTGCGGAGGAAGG + anchor), 100 nM annealed; ATP concentration: 500 uM;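 also: ATP exposure 15 min at 22 °C before imaging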
Entries and their switch fluorescence ratio values follow.
The reply should be a number, written without any unit.

GGGACATTTT ... 1.03
GGTGTGGCGC ... 0.955
TGAGTGTGTA ... 1.03

[ask] Which switch fluorescence ratio is listed for ATTTTTTTAT ?
[reply] 0.995

[ask] Subsequent entry: GGCCGGACAT
[reply] 0.967

[ask] Same for TTTTGACACG
[reply] 0.959

[ask] Quick one: GGGACAGGGA
[reply] 1.05

[ask] Continue with GGGGGTACGT
[reply] 0.989

[ask] // query: TGGGGAAGGA
[reply] 0.99

[ask] Try this sequence too: TTTTTTCT
[reply] 0.987

[ask] // query: GTTGTAAGTT
[reply] 0.978
